Tested on: Escherichia coli
experimental parameters: Concentration 32 ug.mL-1; ASSAY_TEST Inhibition of Bacterial Growth; detection method Absorption (OD600); MEDIA CAMHB; plate type 384well; NBS; CORNING #3640; time 18 hr
Description: Antibacterial activity against Escherichia coli ATCC 25922 (CO-ADD:GN_001); MIC in CAMBH media using NBS plates, by OD(600)
Measured potencies and affinities stand elsewhere.
# reported Inhibition; entries follow

| compound | Inhibition / % |
| --- | --- |
| C#CCN(C)c1nc(Sc2ccccc2)c(C#N)c(-c2ccccc2)c1C#N | 1.09 |
| OCc1cc2ccccc2[nH]1 | -0.49 |
| CN(Cc1cn(Cc2ccccc2)nn1)Cc1cc2cc(OCCCC3CCN(Cc4ccccc4)CC3)ccc2n1C | -17.67 |
| N#Cc1c(N)nc(N2CCOCC2)c(C#N)c1-c1ccccc1 | 0.53 |
| N#CC1(Br)C(=NBr)Oc2ccc3ccccc3c2C1c1ccccc1 (stereo unspecified) | 1.03 |
| CC(=O)Oc1ccc(C=C2N=C(c3ccccc3)OC2=O)c(OC(C)=O)c1 | 7.35 |
| CNCc1cc2cc(OC)ccc2n1C.Cl | -0.77 |
| C/C(Cc1ccccc1)=N/NC(=O)c1c[nH]c2ccc(O)cc12 | 8.13 |
| CCOc1nc2nc(C)c(C=C3CCN(Cc4ccccc4)CC3)cc2c(-c2ccccc2)c1C#N | -8.83 |
| CCOC(=O)N/N=C/c1ccccc1 | -1.06 |
| CCOC(=O)c1cc2cc(OC(=O)Oc3ccc([N+](=O)[O-])cc3)ccc2[nH]1 | -33.4 |

====

Test system: Escherichia coli
experimental parameters: Concentration 32 ug.mL-1; ASSAY_TEST Inhibition of Bacterial Growth; detection method Absorption (OD600); MEDIA CAMHB; plate type 384well; NBS; CORNING #3640; time 18 hr
Potency and affinity values are given separately.
Recorded measurements of Inhibition, one per entry
reported property: Inhibition (%)

| compound | reported property | measurement unit | readout value |
| --- | --- | --- | --- |
| COc1ccc2cc(C3C4=C(CC(C)(C)CC4=O)Oc4nc5c(c(N)c43)CCC5)c(Cl)nc2c1 (stereo not given) | Inhibition | % | 11.31 |
| Cc1ccc2[nH]c(=O)c(C=O)cc2c1 | Inhibition | % | -7.4 |
| C#CCN(C)Cc1cc2cc(OCCCC3CCN(Cc4ccc(OC)c5ncccc45)CC3)ccc2n1C | Inhibition | % | -14.67 |
| CCOC(=O)c1c[nH]c2ccc(OCc3ccccc3)cc12 | Inhibition | % | 6.31 |
| CNCc1cc2cc(OCc3ccccc3)ccc2n1C.Cl | Inhibition | % | 3.38 |
| COC(=O)C(=Cc1ccc(OC)cc1)NC(C)=O | Inhibition | % | 8.29 |
| Cc1nc(NO)c2c(C)nn(-c3ccccc3)c2n1 | Inhibition | % | 4.93 |
| O=C1SC(SCc2ccccc2)=NC1=Cc1ccccc1 | Inhibition | % | 1.82 |
| Cn1ccnc1C1c2c(nc3c(c2N)CCC3)Oc2ccc3ccccc3c21 (stereo not given) | Inhibition | % | -9.44 |
| COc1cc(Br)c(C=O)cc1OC | Inhibition | % | 5 |
| C=C1CN(C)c2c(C#N)c(-c3ccccc3)c(C#N)c(=O)n21 | Inhibition | % | -1.97 |
| N#Cc1ccc(Br)cc1N | Inhibition | % | 16.76 |
| C#CCNc1nc(NC2CCN(Cc3ccccc3)CC2)c(C#N)c(-c2ccccc2)c1C#N | Inhibition | % | -23.87 |
| CSC1=NC2(CC2c2ccccc2)C(=O)N1 (stereo not given) | Inhibition | % | 2.43 |
| C#CCNc1nc(NCC#C)c(C#N)cc1C#N | Inhibition | % | -10.16 |
| O=C(NNCc1c[nH]c2ccccc12)c1cccc2ccccc12 | Inhibition | % | 3.58 |
| Cc1ccc(C=C2N=C(c3ccccc3)OC2=O)cc1 | Inhibition | % | 3.61 |
| O[C@H]1CC[C@H](NCc2ccccc2)CC1 | Inhibition | % | -7.34 |
| C#CCNc1nc(NC2CCN(Cc3ccccc3)CC2)c(C#N)cc1C#N.Cl | Inhibition | % | -6.24 |
| CN(C)c1nc(N)c(C#N)c(-c2ccccc2)c1C#N | Inhibition | % | 0.57 |
| COC(=O)C(C#N)=Cc1ccccc1 | Inhibition | % | 9.25 |
| C#CCNc1nc(OC)c(C#N)c(-c2ccccc2)c1C#N | Inhibition | % | -4 |
| Cl.Cl.Cn1c(CNc2ccccc2)cc2cc(OCCCC3CCN(Cc4ccccc4)CC3)ccc21 | Inhibition | % | -8.49 |
| N#Cc1cc(C#N)c(NCCCCC2CCN(Cc3ccccc3)CC2)nc1N | Inhibition | % | -9.24 |
| Cl.ClCCCN1CCCCC1 | Inhibition | % | 17.01 |
